# Tested on: PC-12
# experimental_details: Stimulation of nerve growth factor-mediated neurite outgrowth in rat PC12 cells incubated for 96 hrs in presence of 20 ng/ml NGF by phase contrast microscopy
# Type: functional, cell-based
# condition_notes: Rattus norvegicus, PC-12, 96 h; read-out: EC50
attribute_measured: EC50 (µM)
Number only, in µM; omit the unit.

Fill in reported EC50 for this entry: C=C[C@@]1(C)CC[C@H]2C(=CC[C@H]3[C@](C)(CO)CCC[C@]23C)[C@H]1O
7.6

Using the record for CC(C)[C@@]12C=C3[C@@H](O)C[C@@H]4[C@@](C)(C(=O)O)CCC[C@@]4(C)[C@]3(CC1)OO2 , state its measured EC50.
10.6

For C=C1CC[C@H]2C(C)(C)C(=O)CC[C@]2(C)[C@H]1CC/C(C)=C/C(=O)O , write its EC50.
6
